Origin of the recorded values: PubChem BioAssay (NCI)

- Tested on: BT-549 breast
- runDescription: NCI-60 one-dose screen, 48 h (100 = growth as untreated, 0 = no growth, -100 = all killed)
- settings: 10 µM unless noted
- Method: Growth inhibition of the BT-549 human tumor cell line is measured as a screen for anti-cancer activity. Cells are grown in 96 well plates and exposed to the test compound for 48 hours. Compounds are tested at a single concentration, which is 10^-5 M for most compounds. The reported endpoint is percent growth (GI% or GIPRCNT), where numbers from 0 - 100% represent growth inhibition, and numbers from -100% - 0 represent cell death. For example, a value of 40 represents 60% growth inhibition. […]
This is part of a sample that, as a whole, favours compounds with a hit. Of some 83,000 tested, about 20% had one in any assay.
Answer not fulfilled if growth is under 70%, and fulfilled if it is 70% or more.

compound: OCC1OC(O)C(O)C(O)C1O (stereo not given)
classification: fulfilled
//
compound: O=C(Cc1ccccc1)c1ccc(O)c(Cl)c1
classification: not fulfilled
//
compound: N#CC(C#N)N=Nc1ccc(Cl)cc1
classification: fulfilled
//
compound: CC(C)C(C)(C)c1ccc(O)cc1
classification: fulfilled
//
compound: COc1ccc2cc1Oc1ccc(cc1)C[C@H]1c3cc(c(OC)cc3CCN1C)Oc1c(OC)c(OC)cc3c1[C@H](C2)N(C)CC3
classification: not fulfilled

Prompt line: Is it the case that `COc1ccc(Nc2ccc3ccccc3c2)cc1` has growth reaching or exceeding 70%?
Response line: fulfilled

###

The molecules listed here are annotated with their growth.
- Test system: SF-268 CNS
- runDescription: NCI-60 one-dose screen, 48 h (100 = growth as untreated, 0 = no growth, -100 = all killed)
- settings: 10 µM unless noted
This is part of a sample that, as a whole, favours compounds with a hit. Of some 83,000 tested, about 20% had one in any assay.
Just the number in %, nothing appended.

Use the examples below as a reference point.
molecule: O=C(Cc1ccccc1)c1ccc(O)c(Cl)c1
metricName: growth
assayResult: 41.7
//
molecule: Fc1ccc([I+]c2ccc(F)cc2)cc1
metricName: growth
assayResult: 58.9
//
molecule: C/C(=C\c1ccccc1)c1ccccn1
metricName: growth
assayResult: 99.3
//
molecule: COc1cc(C(O)C2C(=O)OCC2C2(c3ccc4c(c3)OCO4)SCCCS2)cc(OC)c1OC (stereo not given)
metricName: growth
assayResult: 94.3

Prompt line: Returns the measured growth for the input molecule. Input: NC(=O)NCCCC(N)C(=O)O (stereo not given)
Response line: 104

Prompt line: Returns the measured growth for the input molecule. Input: `N#CC(C#N)N=Nc1ccc(Cl)cc1`
Response line: 84.9

Prompt line: Returns the measured growth for the input molecule. Input: OC1COC(OCc2ccccc2)C(O)C1O (stereo not given)
Response line: 106

Prompt line: Returns the measured growth for the input molecule. Input: `CC1(C)COC(=S)N1`
Response line: 107

Prompt line: Returns the measured growth for the input molecule. Input: CC(=O)OC(C)C(=O)NCC(C)O (stereo not given)
Response line: 100

###

- System: SNB-19 CNS
- runDescription: NCI-60 one-dose screen, 48 h (100 = growth as untreated, 0 = no growth, -100 = all killed)
- settings: 10 µM unless noted
- Procedure: Growth inhibition of the SNB-19 human tumor cell line is measured as a screen for anti-cancer activity. Cells are grown in 96 well plates and exposed to the test compound for 48 hours. Compounds are tested at a single concentration, which is 10^-5 M for most compounds. The reported endpoint is percent growth (GI% or GIPRCNT), where numbers from 0 - 100% represent growth inhibition, and numbers from -100% - 0 represent cell death. For example, a value of 40 represents 60% growth inhibition. […]
Compounds without any hit were thinned out: in the full panel of roughly 83,000, 20% have a hit.
The molecules listed here are annotated with their growth.
Just the number in %, nothing appended.

Use the examples below as a reference point.
molecule: CC(=O)NCC(=O)c1ccc([N+](=O)[O-])cc1
quantityUnit: %
assayResult: 103

molecule: Cc1ccc(S(=O)(=O)c2ccccc2)cc1
quantityUnit: %
assayResult: 43.4

molecule: O=CN1CCCCC1
quantityUnit: %
assayResult: 107

molecule: CCc1cc(C)cc(O)c1
quantityUnit: %
assayResult: 103

molecule: Nc1cc(N)c(N)cc1N
quantityUnit: %
assayResult: 84.5

molecule: CC(=O)OC(C)C(=O)NCC(C)O (centres undefined)
quantityUnit: %
assayResult: 110

molecule: ClCCOCCOc1ccc(C2CCCCC2)cc1
quantityUnit: %
assayResult: 98.4

molecule: COc1cc(C(O)C2C(=O)OCC2C2(c3ccc4c(c3)OCO4)SCCCS2)cc(OC)c1OC (centres undefined)
quantityUnit: %
assayResult: 96.4

molecule: CCOC(=O)c1c(C)cc(=O)oc1C
quantityUnit: %
assayResult: 96.2

molecule: NN1CCOC(c2ccccc2)C1 (centres undefined)
quantityUnit: %
assayResult: 101

Prompt line: Returns the measured growth for the input molecule. Input: OCC1OC(O)C(O)C(O)C1O (centres undefined)
Response line: 107

Prompt line: Returns the measured growth for the input molecule. Input: `Cl`
Response line: 99.3

Prompt line: Returns the measured growth for the input molecule. Input: CC1CCC(C(C)C)C(NNC(N)=O)C1 (centres undefined)
Response line: 98.4

Prompt line: Returns the measured growth for the input molecule. Input: `CC(C)(O)C(=O)O`
Response line: 103

Prompt line: Returns the measured growth for the input molecule. Input: Nc1ncnc2c1ncn2C1OC(COP(=O)(O)O)C(O)C1O (centres undefined)
Response line: 103

Prompt line: Returns the measured growth for the input molecule. Input: CCCCCCCCCCCCCCCc1ccc(N)c(OC2OC(CO)C(O)C(O)C2O)c1 (centres undefined)
Response line: 101

Prompt line: Returns the measured growth for the input molecule. Input: `CCCCCCCCCCNC(=O)CI`
Response line: 89.2
